Attribution: PubChem BioAssay (NCI)

# Test system: HS 578T breast
# Measurement Notes: NCI-60 one-dose screen, 48 h (100 = growth as untreated, 0 = no growth, -100 = all killed)
# Study Conditions: 10 µM unless noted
The panel holds about 83,000 compounds, 20% with a hit somewhere; the sample as a whole holds those more often.
Entries and their growth values follow.
Reply with just the number (in %).

Structure Notation	Target Desc	Value Reported
O=C(Nc1cccc(Cn2c(=O)[nH]c3ccc(Oc4ncccn4)cc3c2=O)c1)c1cccc(Cl)c1	HS 578T breast	73.7
O=C(Nc1ncc(Cc2ccccc2)s1)c1cc(-c2ccccc2)nc2ccccc12	HS 578T breast	92.6
COC(=O)c1cc(-c2ccc(OC)c(OC)c2)[nH]c1N/N=C/c1c(Cl)cccc1Cl	HS 578T breast	14.3
Cc1ccccc1NC(=O)Cn1cc(CN2CCN(c3ccnc4cc(Cl)ccc34)CC2)nn1	HS 578T breast	85.5
Cc1c(N2CCCCC2)[nH]c2ccccc12	HS 578T breast	96.2
COc1ccc(C2=C/C(=C\c3ccccc3O)C(=O)N2Cc2ccccc2)cc1	HS 578T breast	74.8
COC(=O)c1nc(-c2ccc(C)cc2)oc1N1CCOCC1	HS 578T breast	108
CC(=O)O[C@H]1C[C@@]2(C)[C@@H](C[C@@H](O)[C@H]3[C@@]4(C)CC[C@H](N5CCCC5)[C@@H](C)[C@@H]4CC[C@@]32C)/C1=C(\CCC=C(C)C)C(=O)O	HS 578T breast	95.3

Now let's try a different one.
Problem: Please give the documented growth of `C#C[C@]1(O)CC[C@H]2[C@@H]3CC=C4c5sc(-c6cccc(C)c6)nc5CC[C@]4(C)[C@H]3CC[C@@]21C`
Solution: 40.8

---

# Tested on: BT-549 breast
# Measurement Notes: NCI-60 one-dose screen, 48 h
# Study Conditions: 10 µM unless noted
Compounds without any hit were thinned out: in the full panel of roughly 83,000, 20% have a hit. The source made the active and inactive calls. The calls were made as follows: active = growth percent below 10; inactive = the rest.
Outcome field: choose from Y = active, N = inactive

Examples with answers:
Compound	Label
Cc1[nH]c(C(=O)Nc2ccc(C(N)=O)cc2OC(C)C)c(Cl)c1Cl	N
O=C1CCc2c(sc3[nH]c(=S)n(-c4cc(C(F)(F)F)cc(C(F)(F)F)c4)c(=O)c23)C1	Y
COc1ccc(-c2ccc(-c3ccc(C(=N)N)nc3)s2)cc1	N
Cn1ccnc1C(=O)/C=C/c1ccc(C(=O)Nc2c(F)c(F)c(F)c(F)c2F)cc1	N

Problem: Hi team, can someone confirm the assay call for `CC(C)(C)n1cc(-c2ccnc(NCCNS(=O)(=O)c3ccc(Br)cc3)c2)c(-c2cccc(O)c2)n1` ?
Solution: N

---

# Tested on: TK-10 renal
# Measurement Notes: NCI-60 one-dose screen, 48 h
# Study Conditions: 10 µM unless noted
Compounds without any hit were thinned out: in the full panel of roughly 83,000, 20% have a hit. The source made the active and inactive calls. How the source made its calls: active means growth percent below 10; inactive means the rest.
Outcome field: choose from true (1) (active), false (0) (inactive)

Compound	Target Desc	Label
CN1CCN(Cc2ccc(NC(=O)c3cncc(C#Cc4c(N)ncc5cc(F)ccc45)c3)cc2C(F)(F)F)CC1	TK-10 renal	false (0)
O=C(Nc1cccc(Cl)c1)Oc1c(Cl)c(Cl)c(Cl)c(Cl)c1Cl	TK-10 renal	false (0)

Problem: Hi team, can someone confirm the assay call for COc1cc2c(c(OC)c1OC)CCC(c1cccc(NC(=O)c3cccc(Cl)c3)c1)O2 (stereo unspecified) ?
Solution: false (0)
